Target: HLA DQ molecule DQB1*0503 (human)
Test: inhibition of radiolabeled peptide binding to purified HLA DQ
readout-type: IC50
Respond with a number, then the unit of measure.

FKAAVAAAAGAPPAD [Poa p 5 peptide, position 61 (Peptide ID 3324.1575)] ... 1380 nM

Provide IC50 for all items below, preserving their order.
1. ATPEAKFDSFVAAFT [Poa p 5 peptide, position 121 (Peptide ID 3324.1570)]
2. EGTVDFIFGEARSLY [Sal k 1 1 peptide, position 191 (Peptide ID 3324.1590)]
3. QKLMEDINVGFKAAV [Poa p 5 peptide, position 51 (Peptide ID 3324.1580)]

**A:**
["910 nM", "2360 nM", "5210 nM"]
